experimental details: Antiplatelet activity against human platelet assessed as platelet aggregation
Type: functional, cell-based
measure name: EC50 (nM)
Respond with the bare value in nM.

Need EC50 of `Cn1cc(/C=C/C(=O)NS(=O)(=O)c2cc(F)c(F)cc2F)c2c(Oc3ccc4ccccc4c3)cccc21` , thanks.
8.1

====

experimental details: Metabolic stability in mouse liver microsome assessed as compound remaining at 5 uM after 30 mins
Type: ADME
assay context: liver microsomes, read-out: Stability
measure name: remaining at 0.5 h, 5 µM (%)
Respond with the bare value in %.

Need remaining at 0.5 h, 5 µM of `Cn1cc(/C=C/C(=O)NS(=O)(=O)c2ccc(F)c(F)c2)c2c(Oc3ccc(Cl)cc3Cl)cccc21` , thanks.
69

Now for a further compound.
Need remaining at 0.5 h, 5 µM of `Cn1cc(/C=C/C(=O)NS(=O)(=O)c2ccc(F)c(F)c2)c2c(Oc3ccc4ccccc4c3)cccc21` , thanks.
62

====

target or test system: Prostaglandin E2 receptor EP3 subtype (Homo sapiens, UniProt P43115)
Sequence (P43115 whole entry): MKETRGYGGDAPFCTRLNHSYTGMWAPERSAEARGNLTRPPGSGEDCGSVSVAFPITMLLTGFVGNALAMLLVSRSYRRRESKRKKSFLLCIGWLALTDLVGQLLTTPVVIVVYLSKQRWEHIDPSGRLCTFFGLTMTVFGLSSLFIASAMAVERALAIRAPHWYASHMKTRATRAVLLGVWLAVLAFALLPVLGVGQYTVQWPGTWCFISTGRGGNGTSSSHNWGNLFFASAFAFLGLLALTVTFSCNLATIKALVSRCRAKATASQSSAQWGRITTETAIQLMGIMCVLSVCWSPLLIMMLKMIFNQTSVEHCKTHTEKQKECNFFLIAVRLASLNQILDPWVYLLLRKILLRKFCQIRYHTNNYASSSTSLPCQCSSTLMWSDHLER
experimental details: Displacement of [3H]PGE2 from human EP3 receptor at 20 uM in presence of 10% human serum
measure name: IC50
Remember to follow the number with its unit.

Worked examples follow.
Need IC50 of `Cn1cc(/C=C/C(=O)NS(=O)(=O)c2cc(Cl)c(Cl)s2)c2c(Oc3ccc4ccccc4c3)cccc21` , thanks.
89.6 nM

Need IC50 of `Cn1cc(/C=C/C(=O)NS(=O)(=O)c2ccc(F)c(F)c2)c2c(Oc3ccc4ncccc4c3)cccc21` , thanks.
130 nM

Need IC50 of `Cn1cc(/C=C/C(=O)NS(=O)(=O)c2ccc(F)c(F)c2)c2c(Oc3ccc(Cl)c(F)c3)cccc21` , thanks.
612 nM

Continuing:
Need IC50 of `Cn1cc(/C=C/C(=O)NS(=O)(=O)c2cc(F)c(F)cc2F)c2c(Oc3ccc(Cl)cc3F)cccc21` , thanks.
156 nM

Need IC50 of `Cn1cc(/C=C/C(=O)NS(=O)(=O)c2ccc(F)c(F)c2)c2c(Oc3ccc(F)c(F)c3)cccc21` , thanks.
196 nM

====

target or test system: UniProt:P43115
experimental details: Displacement of [3H]PGE2 from human EP3 receptor at 20 uM in presence of 10% human serum
Just a reminder that ties go to 0 (no): only IC50 strictly below 200 nM counts as 1 (yes).

Given `Cn1cc(/C=C/C(=O)NS(=O)(=O)c2cc(F)c(F)cc2F)c2c(Oc3ccc(Cl)c(F)c3)cccc21` , is recorded IC50 strictly lower than 200 nM?
1 (yes)

Given `Cn1cc(/C=C/C(=O)NS(=O)(=O)c2cc(Cl)cc(Cl)c2)c2c(Oc3ccc4ccccc4c3)cccc21` , is recorded IC50 strictly lower than 200 nM?
0 (no)

Given `Cn1cc(/C=C/C(=O)NS(=O)(=O)c2cc(F)c(F)cc2F)c2c(Oc3ccc4ncccc4c3)cccc21` , is recorded IC50 strictly lower than 200 nM?
1 (yes)

Given `Cn1cc(/C=C/C(=O)NS(=O)(=O)c2ccc(F)c(F)c2)c2c(Oc3ccc(F)c(Cl)c3)cccc21` , is recorded IC50 strictly lower than 200 nM?
1 (yes)

Given `Cn1cc(/C=C/C(=O)NS(=O)(=O)c2ccc(Cl)cc2)c2c(Oc3ccc4ccccc4c3)cccc21` , is recorded IC50 strictly lower than 200 nM?
0 (no)

Continuing:
Given `Cn1cc(/C=C/C(=O)NS(=O)(=O)c2cc(F)c(F)cc2F)c2c(Oc3ccc(F)c(F)c3)cccc21` , is recorded IC50 strictly lower than 200 nM?
0 (no)

Given `Cn1cc(/C=C/C(=O)NS(=O)(=O)c2ccc(F)c(F)c2)c2c(Oc3ccc(Cl)cc3)cccc21` , is recorded IC50 strictly lower than 200 nM?
0 (no)

====

target or test system: Prostaglandin F2-alpha receptor (Homo sapiens)
Sequence (P43088 whole entry): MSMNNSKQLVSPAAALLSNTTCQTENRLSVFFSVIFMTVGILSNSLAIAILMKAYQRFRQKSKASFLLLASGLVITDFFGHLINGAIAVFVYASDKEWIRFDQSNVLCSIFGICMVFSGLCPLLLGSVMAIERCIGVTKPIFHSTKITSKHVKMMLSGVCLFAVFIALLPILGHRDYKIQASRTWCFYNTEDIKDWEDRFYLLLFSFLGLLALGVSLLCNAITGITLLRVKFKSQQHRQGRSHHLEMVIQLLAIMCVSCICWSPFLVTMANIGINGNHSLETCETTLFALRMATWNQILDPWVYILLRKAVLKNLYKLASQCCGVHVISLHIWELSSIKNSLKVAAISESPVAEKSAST
measure name: pIC50
# log scale: pIC50 equals minus log10 of the concentration in mol/L

Worked examples follow.
Need pIC50 of `Cn1cc(/C=C/C(=O)NS(=O)(=O)c2cc(F)c(F)cc2F)c2c(Oc3ccc(Cl)c(F)c3)cccc21` , thanks.
5.65

Need pIC50 of `Cn1cc(/C=C/C(=O)NS(=O)(=O)c2ccc(F)c(F)c2)c2c(Oc3ccc(F)c(Cl)c3)cccc21` , thanks.
5.74

Now for a further compound.
Need pIC50 of `Cn1cc(/C=C/C(=O)NS(=O)(=O)c2ccc(F)c(F)c2)c2c(Oc3ccc(Cl)c(Cl)c3)cccc21` , thanks.
5.62
